The measurements presented in this section are drawn from patent US9215875B2.

Test: log P determination by HPLC on reversed-phase columns (C 18), acidic range pH 2.7
Type: physicochemical
Details: reversed-phase HPLC column (C 18), pH 2.7, pH 2.7; preparation example; only value or main isomer; read-out: log P (pH2.7)
Kindly state chromatographic logP for each of the entries shown.
Write the number on its own, no unit after it.

Query string: Report chromatographic logP for Cc1cc(C(F)(F)F)nn1CC(=O)N1CCC(c2nc(C=NN(C)c3ccc(C(F)(F)F)cn3)cs2)CC1 [I-14] please.
Result string: 4.23

Query string: Data request, read-out chromatographic logP, for Cc1cc(C(F)(F)F)nn1CC(=O)N1CCC(c2nc(C=NOc3ccccc3)cs2)CC1 [I-1]
Result string: 3.74

Query string: Return reported chromatographic logP; argument: CC(=NN1CCCCC1)c1csc(C2CCN(C(=O)Cn3nc(C(F)(F)F)cc3C)CC2)n1 [I-17]
Result string: 3.69

Query string: Which chromatographic logP value is on record for CC(=O)c1csc(C2CCN(C(=O)Cn3nc(C(F)(F)F)cc3C)CC2)n1 [IV-1] ?
Result string: 2.25

Query string: Tell me the measured chromatographic logP of CC(=NOC(C)c1ccccc1)c1csc(C2CCN(C(=O)Cn3nc(C(F)(F)F)cc3C)CC2)n1 (centres unmarked) [I-5] , please.
Result string: 4.38

----------
For each record, write down the corresponding chromatographic logP.
Test: log P determination by HPLC on reversed-phase columns (C 18), acidic range pH 2.7
Assay type: physicochemical
Conditions: reversed-phase HPLC column (C 18), pH 2.7, HPLC, pH 2.7; second-listed (minor) isomer of the isomer mixture; read-out: logP
I'd appreciate a reply containing only the number, no unit.

Query string: Data request, read-out chromatographic logP, for Cc1cc(C(F)(F)F)nn1CC(=O)N1CCC(c2nc(C=NOc3ccccc3)cs2)CC1 [I-1]
Result string: 3.94

Query string: Tell me the measured chromatographic logP of CC(=NOC(C)c1ccccc1)c1csc(C2CCN(C(=O)Cn3nc(C(F)(F)F)cc3C)CC2)n1 (centres unmarked) [I-5] , please.
Result string: 4.54

----------
Assay: log P determination by HPLC on reversed-phase columns (C 18), acidic range pH 2.7
Assay type: physicochemical
Settings: reversed-phase HPLC column (C 18), pH 2.7, HPLC, pH 2.7; only value, or main isomer; read-out: logP
Can you tell me chromatographic logP for the items I'm about to list?

Query string: Look up chromatographic logP: Cc1cc(C(F)(F)F)nn1CC(=O)N1CCC(c2nc(C=NN(C)c3ccc(C(F)(F)F)cn3)cs2)CC1 [I-14]
Result string: 4.23

Query string: Please report the recorded chromatographic logP for CC(=NOC(C)c1ccccc1)c1csc(C2CCN(C(=O)Cn3nc(C(F)(F)F)cc3C)CC2)n1 (stereo not shown) [I-5] .
Result string: 4.38

Query string: Which chromatographic logP value belongs to Cc1cc(C(F)(F)F)nn1CC(=O)N1CCC(c2nc(C=NOc3ccccc3)cs2)CC1 [I-1] ?
Result string: 3.74

Query string: What does the data say about its chromatographic logP? Entry: CC(=NN1CCCCC1)c1csc(C2CCN(C(=O)Cn3nc(C(F)(F)F)cc3C)CC2)n1 [I-17]
Result string: 3.69

----------
What logP was measured for each of the following?
Assay: log P determination by HPLC on reversed-phase columns (C 18), acidic range pH 2.7
Type: physicochemical
Details: HPLC, pH 2.7; only value, or main isomer
Answer with a bare number; do not write a unit.

Query string: For O=C(Cc1cc(Cl)ccc1Cl)N1CCC(c2nc(C=NOC3CCCCC3)cs2)CC1 (mixture of isomers) [I-35] , what is its reported logP?
Result string: 5.10

Query string: Request the reported logP associated with CC(=NOC1CCCCC1)c1csc(C2CCN(C(=O)Cn3nc(C(F)F)cc3C(F)F)CC2)n1 (mixture of isomers) [I-45]
Result string: 4.69

Query string: Given the entry CCCCCCON=C(C)c1csc(C2CCN(C(=O)Cn3nc(C(F)(F)F)cc3C)CC2)n1 [I-19] , report its measured logP.
Result string: 5.13

Query string: # lookup: logP of CC(=NOCCCCc1ccccc1)c1csc(C2CCN(C(=O)Cn3nc(C(F)(F)F)cc3C)CC2)n1 [I-22]
Result string: 4.97

Query string: Give its logP value. Item: CC(=NOC1CCCCC1)c1csc(C2CCN(C(=O)Cn3nc(C(F)(F)F)cc3C)CC2)n1 (mixture of isomers) [I-44]
Result string: 4.02

Query string: For the compound shown here, CC(C)(C)c1cc(C(F)(F)C(F)(F)F)nn1CC(=O)N1CCC(c2nc(C=NOCc3ccc(Cl)cc3)cs2)CC1 [I-31] , give the reported logP.
Result string: 5.31

Query string: # lookup: logP of Cc1cc(C(F)(F)F)nn1CC(=O)N1CCC(c2nc(C=NN(c3ccccc3)c3ccccc3)cs2)CC1 [I-13]
Result string: 4.77
